Target: D-3-phosphoglycerate dehydrogenase (Homo sapiens)
Test: Inhibition of N-terminal His6-tagged human liver PHGDH expressed in Escherichia coli Rosetta (DE3)pLysS at 57 uM using 3-phosphoglycerate as substrate after 20 mins in presence of NAD+ by resazurin fluorescence based PSAT1/diaphorase/PSPH coupled enzyme assay
Assign YES to entries whose inhibition meets or exceeds 90%; assign NO to the rest.

// query Can Cc1cc(C)nc(NC(=S)N2CCN(Cc3ccc(C(F)(F)F)cc3)C(C(=O)O)C2)c1 (stereo unspecified) be said to have inhibition at or above 90%?
// result YES

// query Reported inhibition at or above 90%? FC(F)(F)c1cccc(N2CCN(C(=S)Nc3cc(C(F)(F)F)ccn3)CC2)c1
// result NO

// query State whether the measured inhibition reaches 90%, counting equality as reaching it, for Cc1cc(C)nc(NC(=S)N2CCN(Cc3cccc(C(F)(F)F)c3)CC2)c1
// result YES

// query Record Cc1cc(C)nc(NC(=S)N2CC3CN(Cc4ccc(C(F)(F)F)cc4)CC3C2)c1 (stereo unspecified) ; criterion: inhibition no lower than 90%. Met?
// result YES

// query In plain terms: is recorded inhibition at least 90% for COC(=O)c1ccnc(NC(=S)N2CCN(c3cccc(C(F)(F)F)c3)CC2)c1 ?
// result NO

// query Quick check: does Cc1cc(C)nc(NC(=S)N2CCN(c3ccc(C(F)(F)F)cn3)CC2)c1 have inhibition greater than or equal to 90%?
// result YES

// query Textbook exercise: given the entry Cc1cc(C)nc(NC(=S)N2CCN(C(=O)c3cccc(C(F)(F)F)c3)CC2)c1 , state whether its inhibition is greater than or equal to 90%.
// result YES

// query Does Cc1cc(C)nc(NC(=S)N2CCN(Cc3ccc(OC(F)(F)F)cc3)CC2)c1 have a reported inhibition of at least 90%?
// result YES

// query Form field: inhibition at least 90%? Entry: Cc1cc(C)nc(NC(=S)NCCN(C)Cc2ccc(C(F)(F)F)cc2)c1
// result NO

// query Quick check, inhibition >= 90%? Cc1cc(C)nc(NC(=S)N2CCN(Cc3ccccc3Cl)CC2)c1
// result YES

// query Given the entry Cc1cc(C)nc(NC(=S)N2CCN(c3ccc(C(F)(F)F)cc3)CC2)c1 , answer whether its inhibition meets or surpasses 90%.
// result YES

// query Does the reported inhibition for FC(F)(F)c1cccc(N2CCN(C(=S)Nc3cccnc3)CC2)c1 fall at or above the 90% mark?
// result NO

// query Can Cc1cc(C)nc(NC(=S)N2CCN(Cc3ccc(C(F)(F)F)cc3)[C@@H](C)C2)c1 be said to have inhibition at or above 90%?
// result NO

// query Is it the case that Cc1cc(C)nc(NC(=S)N2CCN(c3cccnc3)CC2)c1 has inhibition reaching or exceeding 90%?
// result NO

// query Form field: inhibition at least 90%? Entry: Cc1ccnc(NC(=S)N2CCN(c3cccc(C(F)(F)F)c3)CC2)n1
// result YES

// query Determine whether this molecule has inhibition no lower than 90%: Cc1cc(C)nc(NC(=S)N2CCC(Nc3ccc(C(F)(F)F)cc3)CC2)c1
// result YES

// query Would you say FC(F)(F)c1cccc(N2CCN(C(=S)Nc3ccccn3)CC2)c1 shows inhibition at minimum 90%?
// result YES

// query Can Cc1cc(C)nc(NC(=S)N2CCC(NC(=O)c3cccc(C(F)(F)F)c3)CC2)c1 be said to have inhibition at or above 90%?
// result YES

// query State whether the measured inhibition reaches 90%, counting equality as reaching it, for Cc1cc(C)nc(NC(=S)N2CCN(Cc3ccccc3C)CC2)c1
// result NO
